# credit: patent US10988477B2

TGT: GCN2 kinase (Homo sapiens, UniProt Q9P2K8)
Sequence (Q9P2K8 whole entry): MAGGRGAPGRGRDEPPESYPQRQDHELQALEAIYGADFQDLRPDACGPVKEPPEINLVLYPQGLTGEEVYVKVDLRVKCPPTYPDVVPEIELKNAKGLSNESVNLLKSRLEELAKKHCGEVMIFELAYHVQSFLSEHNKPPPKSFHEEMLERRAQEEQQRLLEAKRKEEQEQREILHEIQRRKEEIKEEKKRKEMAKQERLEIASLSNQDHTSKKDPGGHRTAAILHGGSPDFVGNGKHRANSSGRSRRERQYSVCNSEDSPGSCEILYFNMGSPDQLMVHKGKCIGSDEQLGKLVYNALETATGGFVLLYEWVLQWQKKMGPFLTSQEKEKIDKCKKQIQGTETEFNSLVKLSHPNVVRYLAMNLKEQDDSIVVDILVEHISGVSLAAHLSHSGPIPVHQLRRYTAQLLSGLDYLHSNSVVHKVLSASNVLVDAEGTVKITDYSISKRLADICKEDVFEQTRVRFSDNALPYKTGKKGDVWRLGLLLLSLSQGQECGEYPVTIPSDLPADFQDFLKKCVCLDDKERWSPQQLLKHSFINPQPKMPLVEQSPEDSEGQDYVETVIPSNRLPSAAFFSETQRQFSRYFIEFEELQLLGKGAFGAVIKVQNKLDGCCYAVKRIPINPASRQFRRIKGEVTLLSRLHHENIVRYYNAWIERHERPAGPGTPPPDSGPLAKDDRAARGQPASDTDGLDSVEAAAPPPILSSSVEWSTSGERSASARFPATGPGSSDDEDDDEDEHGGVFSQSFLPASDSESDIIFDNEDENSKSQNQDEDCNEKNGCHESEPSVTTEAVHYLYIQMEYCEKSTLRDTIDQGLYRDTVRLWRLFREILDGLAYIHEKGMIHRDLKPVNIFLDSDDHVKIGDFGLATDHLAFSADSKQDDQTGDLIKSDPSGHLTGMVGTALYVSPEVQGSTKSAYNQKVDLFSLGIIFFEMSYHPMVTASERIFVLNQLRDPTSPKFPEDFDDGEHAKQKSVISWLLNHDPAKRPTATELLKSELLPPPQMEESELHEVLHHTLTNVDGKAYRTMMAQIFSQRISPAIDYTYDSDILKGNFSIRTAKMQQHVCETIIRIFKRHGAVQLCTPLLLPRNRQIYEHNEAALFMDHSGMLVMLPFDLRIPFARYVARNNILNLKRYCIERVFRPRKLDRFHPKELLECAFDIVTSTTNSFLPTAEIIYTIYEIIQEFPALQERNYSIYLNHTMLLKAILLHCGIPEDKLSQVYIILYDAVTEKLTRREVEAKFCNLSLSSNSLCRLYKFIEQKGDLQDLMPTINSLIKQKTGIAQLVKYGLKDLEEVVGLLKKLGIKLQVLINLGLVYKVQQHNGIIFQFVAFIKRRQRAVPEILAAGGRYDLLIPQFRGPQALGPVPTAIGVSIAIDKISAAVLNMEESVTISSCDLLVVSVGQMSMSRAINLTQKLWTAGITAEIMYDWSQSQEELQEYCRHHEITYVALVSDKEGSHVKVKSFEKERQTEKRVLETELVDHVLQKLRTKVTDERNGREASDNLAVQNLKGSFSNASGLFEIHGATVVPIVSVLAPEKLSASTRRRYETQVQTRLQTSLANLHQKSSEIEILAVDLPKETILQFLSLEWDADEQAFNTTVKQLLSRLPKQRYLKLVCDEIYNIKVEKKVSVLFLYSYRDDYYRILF
MEASUREMENT_NOTES: GCN2 enzyme inhibition assay (Transcreener ADP2 fluorescence polarization)
Assay type: biochemical
CONDITION_LABEL: compounds of Formula II; 280 μM ATP, 4 nM GCN2 kinase
pKi: −log10 of the molar value.
RECORDED_METRIC: pKi

Check out these entries, answers already filled in.
{"COMPOUND": "FC(F)(F)c1ccc2ncc(-c3ccnc(N4CCOC(c5cn[nH]c5)C4)c3)n2n1 (single isomer, unassigned) [II-229]", "RECORDED_METRIC": "pKi", "REPORTED_MEASUREMENT": "> 8.00"}
{"COMPOUND": "CS(=O)(=O)NCC1CN(c2cc(-c3cnc4ccc(C(F)F)nn34)ncn2)CC1O (stereo not shown) [II-140]", "RECORDED_METRIC": "pKi", "REPORTED_MEASUREMENT": "6.00 to 8.00"}
{"COMPOUND": "OCCn1cc(-c2cc(-c3cnc4ccc(C(F)F)nn34)ccn2)cn1", "RECORDED_METRIC": "pKi", "REPORTED_MEASUREMENT": "6.00 to 8.00"}

// next item, pKi requested
Reported pKi of Clc1ccc2ncc(-c3ccnc(N4CCOCC4)c3)n2n1 : 6.00 to 8.00

---

Here, each record is paired with measured IC50 data.
TGT: intracellular GCN2 (phosphorylation of the GCN2 substrate eIF2α) (Homo sapiens, UniProt Q9P2K8)
MEASUREMENT_NOTES: GCN2 cellular inhibition assay (AlphaScreen SureFire P-eIF2α Ser51, borrelidin-treated U2OS cells)
Assay type: cell-based
CONDITION_LABEL: compounds of Formula IV; biomarker assay, phosphorylated eIF2α Ser51 in borrelidin-treated U2OS cells

Illustrative cases are given below, each with its answer.
{"MOLECULE": "NCc1cccc(-c2ccnc(-c3cnc4cnc(C(F)F)cn34)n2)c1 [IV-159]", "IC50": "> 5 µM"}
{"MOLECULE": "CC1CN(c2ccnc(-c3cnc4cnc(C(F)(F)F)cn34)n2)CC(c2cn[nH]c2)N1 (centres unmarked) [IV-189]", "IC50": "0.5 to 5 µM"}
{"MOLECULE": "C[C@@H]1CN(c2ccnc(-c3cnc4cnc(C(F)(F)F)cn34)n2)C[C@@H](c2cn[nH]c2)O1 (racemic) [IV-11]", "IC50": "0.5 to 5 µM"}
{"MOLECULE": "OC1CCCN(c2ccnc(-c3cnc4cnc(C(F)(F)F)cn34)n2)C1 (centres unmarked) [IV-437]", "IC50": "> 5 µM"}
{"MOLECULE": "Cc1n[nH]cc1C1CCN(c2ccnc(-c3cnc4cnc(C(F)(F)F)cn34)n2)C1 (centres unmarked) [IV-575]", "IC50": "0.5 to 5 µM"}

Attention now shifts to the item below.
Field IC50 (entry CS(=O)(=O)NC1CCCN(c2ccnc(-c3cnc4cnc(C(F)F)cn34)n2)C1 (centres unmarked) [IV-169] ) reads > 5 µM

---

TGT: GCN2 kinase (Homo sapiens)
MEASUREMENT_NOTES: GCN2 enzyme inhibition assay (Transcreener ADP2 fluorescence polarization)
Type: biochemical
CONDITION_LABEL: Enzyme activity for compounds of Formula IV; Ki(app), 280 μM ATP, 25° C.
pKi: −log10 of the molar value.
RECORDED_METRIC: pKi

{"MOLECULE": "Cc1[nH]ncc1C1NC(C)CN(c2ccnc(-c3cnc4cnc(Cl)cn34)n2)C1C (centres unmarked) [IV-278]", "pKi": "> 8.00"}
{"MOLECULE": "CN1CCN(c2ccnc(-c3cnc4cnc(C(F)F)cn34)n2)CC1C(N)=O (centres unmarked) [IV-89]", "pKi": "6.00 to 7.00"}
{"MOLECULE": "CC1C(c2cn[nH]c2)OCCN1c1nccc(-c2cnc3cnc(C(F)(F)F)cn23)n1 (centres unmarked) [IV-418]", "pKi": "7.00 to 8.00"}
{"MOLECULE": "O=C1CN(c2ccnc(-c3cnc4cnc(C(F)(F)F)cn34)n2)CC(c2cn[nH]c2)N1 (centres unmarked) [IV-410]", "pKi": "7.00 to 8.00"}
{"MOLECULE": "Brc1cn2c(-c3nccc(N4CCOC(c5cn[nH]c5)C4)n3)cnc2cn1 (centres unmarked) [IV-19]", "pKi": "> 8.00"}
{"MOLECULE": "FC(F)c1cn2c(-c3nccc(N4CCC(c5cccnc5)C4)n3)cnc2cn1 (centres unmarked) [IV-76]", "pKi": "6.00 to 7.00"}
{"MOLECULE": "C[C@@H]1CN(c2ccnc(-c3cnc4cnc(C(F)(F)F)cn34)n2)C[C@@H](c2cn[nH]c2)O1 (racemic) [IV-11]", "pKi": "7.00 to 8.00"}
{"MOLECULE": "FC(F)(F)c1cn2c(-c3nccc(N4CCC(c5c[nH]nc5C5CC5)C4)n3)cnc2cn1 (centres unmarked) [IV-576]", "pKi": "7.00 to 8.00"}

In the following, a different molecule is considered.
GET /value?item= FC(F)c1cn2c(-c3nccc(N4CCCCC4)n3)cnc2cn1 [IV-103] &field=pKi returns 6.00 to 7.00
